peptide exchange yield values, listed per item
Target: T1, HLA-A*02:01 (human)
T1 construct: the tested peptide takes its place; also called peptide-receptive MHC molecules; MHC class I
Assay: UV-ligand exchange, anti-β2m ELISA; grade of peptide exchange yield

{"binder": "ALTGIPLPLI [ALTGIPLPLI (SEQ ID NO: 6)]", "peptide exchange yield": "50 to 75%"}
{"binder": "LINPNIATV [LINPNIATV (SEQ ID NO: 25)]", "peptide exchange yield": "20 to 50%"}
{"binder": "YLHNQGIGV [YLHNQGIGV (SEQ ID NO: 148)]", "peptide exchange yield": "20 to 50%"}
{"binder": "YLPDIIKDQKA [YLPDIIKDQKA (SEQ ID NO: 161)]", "peptide exchange yield": "50 to 75%"}
{"binder": "VLFDVTGQV [VLFDVTGQV (SEQ ID NO: 68)]", "peptide exchange yield": "50 to 75%"}
